- ASSAY INFO: Rat pharmacokinetics: IV infusion 1 mg/kg, then PO 5 mg/kg; blood and urine by LC-MS/MS
- Type: in vivo, Male Wistar Han rats
- CONDITION PARAMETERS: oral bioavailability, ratio of dose-normalised AUC PO (5 mg/kg) and IV infusion (1 mg/kg)
ASSAY READOUT: % F

Cc1cc(-c2cc(C(F)(F)F)cc(C(F)(F)F)c2)ccc1[C@@H](O)[C@H]1O[C@H](CO)[C@@H](O)[C@H](O)[C@@H]1O: “++” (10 <= x <= 30%)
COc1cc(-c2ccc([C@@H](O)[C@H]3O[C@H](CO)[C@@H](O)[C@H](O)[C@@H]3O)c(C)c2)cc(C(F)(F)F)c1: “++” (10 <= x <= 30%)
Cc1cc(-c2cc(F)c(F)c(Cl)c2)ccc1[C@@H](O)[C@H]1O[C@H](CO)[C@@H](O)[C@H](O)[C@@H]1O: “++” (10 <= x <= 30%)

###

- TGT: FimH (Escherichia coli, UniProt Q1R2J4)
- Construct: endogenous in cells; host or cells: E. coli UTI89 whole bacteria, agglutinating guinea pig red blood cells
- Sequence (P08190 24-167, other chains not shown): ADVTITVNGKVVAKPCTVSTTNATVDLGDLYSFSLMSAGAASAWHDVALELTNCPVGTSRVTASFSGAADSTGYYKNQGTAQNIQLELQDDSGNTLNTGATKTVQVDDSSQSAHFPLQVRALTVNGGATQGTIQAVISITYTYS
- Type: cell-based
- CONDITION PARAMETERS: concentration reducing bacterial agglutination of guinea pig red blood cells by greater than 90%; UTI89 bacteria
ASSAY READOUT: HAI titer EC > 90

Illustrative cases are given below, each with its answer.
Cc1cc(-c2cc(OC(C)C)cc(C(F)(F)F)c2)ccc1[C@@H](O)[C@H]1O[C@H](CO)[C@@H](O)[C@H](O)[C@@H]1O [Example 90]: “+++” (50-200 “+++”)
Cc1cc(F)c(-c2ccc([C@@H](O)[C@H]3O[C@H](CO)[C@@H](O)[C@H](O)[C@@H]3O)c(C)c2)cc1F [Example 45]: “++++” (<50 “++++”)
OC[C@H]1O[C@H]([C@H](O)c2ccc(-c3cc(F)cc(F)c3)cc2Cl)[C@@H](O)[C@@H](O)[C@@H]1O [Example 29]: “+++” (50-200 “+++”)
Cc1cc(-c2cc(F)cc(N(C)C)c2)ccc1[C@@H](O)[C@H]1O[C@H](CO)[C@@H](O)[C@H](O)[C@@H]1O [Example 109]: “++++” (<50 “++++”)
Cc1cc(-c2cc(OC(F)(F)F)ccc2F)ccc1[C@@H](O)[C@H]1O[C@H](CO)[C@@H](O)[C@H](O)[C@@H]1O [Example 43]: “+++” (50-200 “+++”)

Find the measured HAI titer EC > 90: item Cc1cc(-c2cc(Cl)cc(Cl)c2)ccc1[C@@H](O)[C@H]1O[C@H](CO)[C@@H](O)[C@H](O)[C@@H]1O [Example 16] , target or system FimH (Escherichia coli, UniProt Q1R2J4).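 Further: concentration in nM.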
“++++” (<50 “++++”)

###

- TGT: FimH (Escherichia coli)
- Construct: endogenous in cells; host or cells: E. coli UTI89 whole bacteria, agglutinating guinea pig red blood cells
- Format: cell-based
- CONDITION PARAMETERS: concentration reducing bacterial agglutination of guinea pig red blood cells by greater than 90%; UTI89 bacteria
ASSAY READOUT: HAI titer EC > 90

A selection of reference data follows.
Cc1cc(-c2cccc(C(F)(F)F)c2)ccc1[C@@H](O)[C@H]1O[C@H](CO)[C@@H](O)[C@H](O)[C@@H]1O: “+++” (50-200 “+++”)
Cc1cc(-c2cc(F)c(N(C)C)c(F)c2)ccc1[C@@H](O)[C@H]1O[C@H](CO)[C@@H](O)[C@H](O)[C@@H]1O: “++++” (<50 “++++”)
Cc1cc(-c2ccc(C(F)(F)F)cc2)ccc1[C@@H](O)[C@H]1O[C@H](CO)[C@@H](O)[C@H](O)[C@@H]1O: “+++” (50-200 “+++”)
Cc1cc(-c2cc(C)c(Cl)c(C)c2)ccc1[C@@H](O)[C@H]1O[C@H](CO)[C@@H](O)[C@H](O)[C@@H]1O: “+++” (50-200 “+++”)
Cc1cc(-c2cc(F)c(Cl)cc2F)ccc1[C@@H](O)[C@H]1O[C@H](CO)[C@@H](O)[C@H](O)[C@@H]1O: “++++” (<50 “++++”)

Parameter requested: HAI titer EC > 90. Apply to each item below.
1. COc1cc(-c2ccc([C@@H](O)[C@H]3O[C@H](CO)[C@@H](O)[C@H](O)[C@@H]3O)c(C)c2)cc(C(F)(F)F)c1F
2. Cc1cc(-c2cc(F)cc(C3CC3)c2)ccc1[C@@H](O)[C@H]1O[C@H](CO)[C@@H](O)[C@H](O)[C@@H]1O
3. Cc1cc(-c2ccc(C(F)(F)F)c(F)c2F)ccc1[C@@H](O)[C@H]1O[C@H](CO)[C@@H](O)[C@H](O)[C@@H]1O
4. Cc1cc(-c2cc(F)c(Br)c(F)c2)ccc1[C@@H](O)[C@H]1O[C@H](CO)[C@@H](O)[C@H](O)[C@@H]1O

["“++++” (<50 “++++”)", "“+++” (50-200 “+++”)", "“+++” (50-200 “+++”)", "“++++” (<50 “++++”)"]

Parameter requested: HAI titer EC > 90. Apply to each item below.
1. Cc1cc(-c2ccc(C(F)(F)F)cc2F)ccc1[C@@H](O)[C@H]1O[C@H](CO)[C@@H](O)[C@H](O)[C@@H]1O
2. COc1cc(-c2ccc([C@@H](O)[C@H]3O[C@H](CO)[C@@H](O)[C@H](O)[C@@H]3O)c(C)c2)cc(OC)c1F

“+++” (50-200 “+++”)
“++++” (<50 “++++”)

Batch request: HAI titer EC > 90 for each of the following compounds.
1. Cc1cc(-c2ccc(CN(C)C)c(F)c2)ccc1[C@@H](O)[C@H]1O[C@H](CO)[C@@H](O)[C@H](O)[C@@H]1O
2. Cc1cc(-c2ccc(F)c(OC(F)(F)F)c2)ccc1[C@@H](O)[C@H]1O[C@H](CO)[C@@H](O)[C@H](O)[C@@H]1O

1: “++++” (<50 “++++”); 2: “+++” (50-200 “+++”)

###

- ASSAY INFO: Rat pharmacokinetics: IV infusion 1 mg/kg, then PO 5 mg/kg; blood and urine by LC-MS/MS
- Assay type: in vivo, Male Wistar Han rats
- CONDITION PARAMETERS: percentage of oral dose (5 mg/kg) eliminated unchanged in urine
ASSAY READOUT: Ue % po

Look over these answered cases.
COc1cc(-c2ccc([C@@H](O)[C@H]3O[C@H](CO)[C@@H](O)[C@H](O)[C@@H]3O)c(C)c2)cc(C(F)(F)F)c1: “+” (<0.5%)
OC[C@H]1O[C@H]([C@H](O)c2ccc(-c3cc(F)cc(F)c3)cc2C(F)(F)F)[C@@H](O)[C@@H](O)[C@@H]1O: “++” (0.5 <= x <= 5%)
Cc1cc(-c2cc(F)c(Cl)c(F)c2)ccc1[C@@H](O)[C@H]1O[C@H](CO)[C@@H](O)[C@H](O)[C@@H]1O: “++” (0.5 <= x <= 5%)
Cc1cc(-c2cc(F)c(C)c(F)c2)ccc1[C@@H](O)[C@H]1O[C@H](CO)[C@@H](O)[C@H](O)[C@@H]1O: “++” (0.5 <= x <= 5%)

Quick check: Ue % po of Cc1cc(-c2cc(F)c(OC(C)C)c(F)c2)ccc1[C@@H](O)[C@H]1O[C@H](CO)[C@@H](O)[C@H](O)[C@@H]1O ?
“+” (<0.5%)

###

- ASSAY INFO: Rat pharmacokinetics: IV infusion 1 mg/kg, then PO 5 mg/kg; blood and urine by LC-MS/MS
- Format: in vivo, Male Wistar Han rats
- CONDITION PARAMETERS: percentage of oral dose (5 mg/kg) eliminated unchanged in urine
ASSAY READOUT: Ue % po

OC[C@H]1O[C@H]([C@H](O)c2c(F)cc(-c3cc(F)cc(F)c3)cc2C(F)(F)F)[C@@H](O)[C@@H](O)[C@@H]1O: “++” (0.5 <= x <= 5%)
C=Cc1c(F)cc(-c2ccc([C@@H](O)[C@H]3O[C@H](CO)[C@@H](O)[C@H](O)[C@@H]3O)c(C)c2)cc1F: “++” (0.5 <= x <= 5%)

###

- ASSAY INFO: Rat pharmacokinetics: IV infusion 1 mg/kg, then PO 5 mg/kg; blood and urine by LC-MS/MS
- Assay type: in vivo, Male Wistar Han rats
- CONDITION PARAMETERS: percentage of oral dose (5 mg/kg) eliminated unchanged in urine
ASSAY READOUT: Ue % po

Cc1cc(-c2cc(F)c(C(F)(F)F)c(F)c2)ccc1[C@@H](O)[C@H]1O[C@H](CO)[C@@H](O)[C@H](O)[C@@H]1O: “++” (0.5 <= x <= 5%)
Cc1cc(-c2ccc(Cl)c(Cl)c2)ccc1[C@@H](O)[C@H]1O[C@H](CO)[C@@H](O)[C@H](O)[C@@H]1O: “++” (0.5 <= x <= 5%)
Cc1cc(-c2cc(Cl)cc(Cl)c2)ccc1[C@@H](O)[C@H]1O[C@H](CO)[C@@H](O)[C@H](O)[C@@H]1O: “++” (0.5 <= x <= 5%)
Cc1cc(-c2cc(F)c(F)c(Cl)c2)ccc1[C@@H](O)[C@H]1O[C@H](CO)[C@@H](O)[C@H](O)[C@@H]1O: “++” (0.5 <= x <= 5%)
CCc1c(F)cc(-c2ccc([C@@H](O)[C@H]3O[C@H](CO)[C@@H](O)[C@H](O)[C@@H]3O)c(C)c2)cc1F: “+” (<0.5%)

Give me Ue % po for each of these molecules, listed below.
1. COc1cc(F)cc(-c2ccc([C@@H](O)[C@H]3O[C@H](CO)[C@@H](O)[C@H](O)[C@@H]3O)c(C)c2)c1
2. Cc1cc(F)c(-c2ccc([C@@H](O)[C@H]3O[C@H](CO)[C@@H](O)[C@H](O)[C@@H]3O)c(C)c2)cc1Cl
3. Cc1cc(-c2cc(F)cc(C(F)(F)F)c2)ccc1[C@@H](O)[C@H]1O[C@H](CO)[C@@H](O)[C@H](O)[C@@H]1O
4. Cc1cc(-c2cc(C(F)(F)F)cc(C(F)(F)F)c2)ccc1[C@@H](O)[C@H]1O[C@H](CO)[C@@H](O)[C@H](O)[C@@H]1O
5. Cc1cc(-c2cc(F)c(OC(F)(F)F)c(F)c2)ccc1[C@@H](O)[C@H]1O[C@H](CO)[C@@H](O)[C@H](O)[C@@H]1O

1. “++” (0.5 <= x <= 5%)
2. “++” (0.5 <= x <= 5%)
3. “++” (0.5 <= x <= 5%)
4. “+” (<0.5%)
5. “+” (<0.5%)

Please state Ue % po for every molecule in the list that follows.
1. Cc1cc(-c2ccc(C(F)(F)F)c(F)c2)ccc1[C@@H](O)[C@H]1O[C@H](CO)[C@@H](O)[C@H](O)[C@@H]1O
2. Cc1cc(-c2cc(F)c(Br)c(F)c2)ccc1[C@@H](O)[C@H]1O[C@H](CO)[C@@H](O)[C@H](O)[C@@H]1O

1. “++” (0.5 <= x <= 5%)
2. “++” (0.5 <= x <= 5%)
